src = ChEMBL document CHEMBL4513216

The entries below come with measured INHIBITION values attached.
Tested on: Plasmodium berghei
ASSAY NAME: Screen against P. berghei liver stage (PbLuc), transformed with Luciferase, at 10uM
Format: functional, HepG2
STUDY CONDITIONS: tested at 10 uM
The campaign covered roughly 69,000 compounds. About 8,600 (12%) showed an effect of 50% or more. The list comes from a sample in which strong results are over-represented; it also holds close analogues and randomly drawn compounds.
VALUE TYPE: INHIBITION (%)

COMPOUND | TEST TARGET | MEASURED RESULT
CCOC(=O)C1(Cc2cccc(OC)c2)CCN(Cc2ncc[nH]2)CC1 | Plasmodium berghei | 57.6
O=S(=O)(NCCCn1cncn1)c1ccc2c(c1)CCC2 | Plasmodium berghei | -58.1
c1cncc(CN2CCCC(Nc3ncnc4c3CCNCC4)C2)c1 (centres undefined) | Plasmodium berghei | 20.9
Nc1ccc(C(=O)N2C[C@H]3CC[C@@H](C2)N(Cc2ccccc2)C3)cn1 | Plasmodium berghei | -20.8
CCC(Nc1nc(C)nc2onc(C)c12)c1nc(C)c(C)s1 (centres undefined) | Plasmodium berghei | 70
Cc1cccc(CNC(=O)Nc2ccn(CCN(C)C)n2)c1 | Plasmodium berghei | -23.8
O=C(NCCNS(=O)(=O)C1CCCCC1)c1ccccc1 | Plasmodium berghei | 15.4
CC(C)CNc1nnc(SC(C(=O)NCc2cccnc2)C(C)C)s1 (centres undefined) | Plasmodium berghei | -11.3
CC(C)NC(=O)CN1CCN(CC2CCOc3ccccc3C2)CC1 (centres undefined) | Plasmodium berghei | -19.8
O=C(CN1CCN(CC2CCOc3ccccc3C2)CC1)N1CCCC1 (centres undefined) | Plasmodium berghei | 16.1
Cc1nc(NCC23CCCN2CCC3)cc(C2CCCNC2)n1 (centres undefined) | Plasmodium berghei | -71.1
CCc1ccc(C(=O)N2CCCC(n3nc(C)nc3C)C2)o1 (centres undefined) | Plasmodium berghei | 33.73
O=C1COc2cccc(OCc3ccccn3)c2N1 | Plasmodium berghei | 12.3
CN(CC1(O)CCN(c2ccccn2)C1)C(=O)Cc1ccsc1 (centres undefined) | Plasmodium berghei | 46
Cc1nc(C2CCCNC2)cc(N2CCc3nc(N)sc3C2)n1 (centres undefined) | Plasmodium berghei | 53.6
CC(C)n1cnnc1CN(C)C(=O)c1ccccc1-n1cncn1 | Plasmodium berghei | 31.7
COc1nsc2nc(C3CCCN3c3ncccn3)ccc12 (centres undefined) | Plasmodium berghei | 25.49
CNC(=O)C1CCN(c2cc(C3CCNCC3)nc(C)n2)C1 (centres undefined) | Plasmodium berghei | 26.4
Cn1ccc2c(NC(=O)Cn3ncc4c(c3=O)CCCCC4)cccc21 | Plasmodium berghei | 6.29
Cc1ccc(N2CCCC3(CCCC(=O)N3)C2)nn1 (centres undefined) | Plasmodium berghei | 3.88
Cc1noc(C(C)SCc2ccccn2)n1 (centres undefined) | Plasmodium berghei | 14.3
Cc1nc(NCC(O)CN2CCCCCC2)c2c(C)noc2n1 (centres undefined) | Plasmodium berghei | 15.7
CNc1cncc(C2CCCN2S(=O)(=O)c2ccccc2)n1 (centres undefined) | Plasmodium berghei | -46.6
CNc1cc(C2CCCNC2)nc(C)n1 (centres undefined) | Plasmodium berghei | 16.4875
COc1cccc(CC2(C(=O)O)CCN(c3ccc(Cl)cn3)CC2)c1 | Plasmodium berghei | 30.8
CNS(=O)(=O)c1ccc(CNC(=O)N(C)C(C)COC)cc1 (centres undefined) | Plasmodium berghei | 44.9
CC(C)c1cc(NC(=O)CN2CCn3c(nnc3C3CC3)C2)on1 | Plasmodium berghei | 7.5
COc1ccc2[nH]cc(C(=O)CNc3nccs3)c2c1 | Plasmodium berghei | 12.8
Cc1noc(C(C)C)c1C(=O)NCC(c1cccs1)N(C)C (centres undefined) | Plasmodium berghei | 2.3
CNC(=O)CCOC(=O)c1cccc(-n2ccc(C(F)(F)F)n2)c1 | Plasmodium berghei | 24.8
CN(C)c1ccccc1C(=O)N1CCCC(c2cccc(C(=O)O)c2)C1 (centres undefined) | Plasmodium berghei | 33.4
COc1cccc(CNC(=O)N2CCN(Cc3cc(C)on3)CC2)c1 | Plasmodium berghei | -1.62
Cc1nc(Nc2ccc(Cl)cn2)sc1C(=O)NC(C)C | Plasmodium berghei | -86.5
O=C1CC2(CCN(Cc3ncc[nH]3)CC2)CN1Cc1ccc(Cl)cc1 | Plasmodium berghei | 12.4
CNC(=O)C1(C)CCCN1Cc1cnn(C)c1C (centres undefined) | Plasmodium berghei | 37.8
O=S(=O)(NCCCn1cncn1)c1ccc2c(c1)CCO2 | Plasmodium berghei | 44.9
Cn1ccc2c(NC(=O)Cn3ncc4c(c3=O)CCCC4)cccc21 | Plasmodium berghei | 74.1
CCc1cnc(N2CCc3ncnc(N4CCN(C)CC4)c3CC2)nc1 | Plasmodium berghei | 36.2
O=C(Nc1ccc2c(c1)OCCO2)N1CCCC1c1ccco1 (centres undefined) | Plasmodium berghei | -0.87
CC(C)Oc1ncccc1CNC(=O)Nc1ccccn1 | Plasmodium berghei | -17.6
CC(NS(C)(=O)=O)C(=O)N1CCCN(Cc2cscn2)CC1 (centres undefined) | Plasmodium berghei | 48.9
Cc1nc(Nc2ccc(Cl)cn2)sc1C(=O)NCCCN1CCCCC1 | Plasmodium berghei | 52.3
CC(=O)c1sc(Nc2ccc(Cl)cn2)nc1C | Plasmodium berghei | -9.27
CCOC(=O)Cc1cs/c(=N/C(=O)COc2cnc(C)cc2O)[nH]1 | Plasmodium berghei | -1.45
CNC(=O)COC(=O)c1cccc(-n2ccc(C(F)(F)F)n2)c1 | Plasmodium berghei | 40.6
O=C1COC2(CCN(Cc3ccco3)CC2)CN1 | Plasmodium berghei | 27.6
Cc1nn(C)c(N2CCOCC2)c1CNC(c1ccccc1)C1CC1 (centres undefined) | Plasmodium berghei | 14.6
Cc1c(NCCO)cccc1OC1CCCC1 | Plasmodium berghei | -64.6
NCCNS(=O)(=O)Cc1ccc(Br)cc1 | Plasmodium berghei | 16.9
